- Test system: RAW264.7
- assay.overview: Antiinflammatory activity in mouse RAW264.7 cells assessed as inhibition of LPS-induced NO production at 10 uM after 24 hrs by Griess reagent based assay relative to control
- Format: functional
- condition.parameters: RAW264.7, 24 h
value.type: inhibition at 10 µM (%)
Report the figure in % without appending any unit label.

Answered examples (3):
CC(C)=CCc1c(O)cc2occ(-c3ccc4c(c3O)C=CC(C)(C)O4)c(=O)c2c1O :: 26
CC(C)=CCc1cc([C@@H]2CC(=O)c3c(O)cc(O)c(CC=C(C)C)c3O2)ccc1O :: 14
COc1cc(O)c(-c2coc3cc(O)ccc3c2=O)c(OC)c1CC=C(C)C :: 14

Give recorded inhibition at 10 µM with RAW264.7 for the following compound: COc1c(/C=C/C(=O)c2ccc(O)cc2)ccc(O)c1CC=C(C)C
1

Hi! What's the reported inhibition at 10 µM for O=C1C[C@@H](c2ccc(O)cc2)Oc2cc(O)ccc21 on RAW264.7?
0

Please tell me: inhibition at 10 µM of CC(C)=CCc1c(O)ccc(-c2cc3ccc(O)cc3o2)c1O , system RAW264.7?
32
